target_system: T1, AP4-AA
T1 chain: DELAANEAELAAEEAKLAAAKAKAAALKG
assay_procedure: two-hybrid library CCmax;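 further: natural log of median RNA to DNA barcode read ratio; higher means stronger binding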
assay_context: mean of both orientations
# maps each entry to its interaction score
test_readout: interaction score

- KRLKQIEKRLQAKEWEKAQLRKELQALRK [4H_APH4]: -1.78
- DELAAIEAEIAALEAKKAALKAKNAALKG [AP3-AA]: -1.84
- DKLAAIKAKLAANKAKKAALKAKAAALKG [AP2-AA]: -1.62
- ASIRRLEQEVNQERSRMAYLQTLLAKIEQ [4H_BCR]: -1.51
- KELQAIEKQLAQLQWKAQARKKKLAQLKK [4H_APH]: -1.31
- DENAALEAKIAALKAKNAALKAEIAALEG [4H1401-AA]: -1.22
- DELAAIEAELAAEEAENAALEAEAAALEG [AP1-AA]: -1.14
- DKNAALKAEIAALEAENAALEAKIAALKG [4H3606-AA]: -1.63

Hello, the source for this data is paper PMC10397247, in case you need it.
